Give T/C for every item shown.
- Tested on: CD2F1 mice, L1210 leukemia ip, survival T/C
- assay-summary: NCI In Vivo Anticancer Drug Screen. Data for tumor model L1210 Leukemia (intraperitoneal) in CD2F1 (CDF1) mice
- run-conditions: endpoint: mean survival time; dose: 200.0 mg/kg/injection; schedule: Q04DX003 (ip); vehicle: saline with Tween-80; higher = longer survival
Inconclusive results and toxic doses are left out.

Past entries and their recorded results:
compound | T/C
C=CCC1(C(=O)OCC)CCCCC1=O (configuration not stated) | 106 % of control
CCCCCCCCCCCCS | 91 % of control
COC(=O)C(Br)CCC(Br)C(=O)OC (configuration not stated) | 94 % of control
OC1C2CC3C1C3C2O (configuration not stated) | 97 % of control
O=[N+]([O-])c1ccc2c(c1)C(=Nc1ccc3ccccc3c1)c1ccccc1-2 | 86 % of control

Go through the list and state T/C for each entry.
1. CCCN(CCC)CCC(=O)OCC
2. NCCc1c[nH]c2ccccc12 (tested in a mixture with another compound)
3. Nc1nc2c(nc(Br)n2C2OC(CO)C(O)C2O)c(=O)[nH]1 (configuration not stated)
4. O=C1C=CC(=O)C(SCCC(=O)O)=C1
5. O=C(O)CCc1c[nH]c2ccccc12

["114 % of control", "101 % of control", "102 % of control", "111 % of control", "102 % of control"]

Go through the list and state T/C for each entry.
1. Cc1cccc(/C=N/OCCC(C)C)n1
2. CC(c1ccc([N+](=O)[O-])cc1)C(O)c1ccccc1 (configuration not stated)
3. CC(CO)CCC(C)CO (configuration not stated)
4. CC(=O)CC(O)(C(F)(F)F)C(F)(F)F

1: 89 % of control; 2: 103 % of control; 3: 95 % of control; 4: 89 % of control
